src = the kinase profiling compilation of Christmann-Franck et al. (2016)

- System: UniProtKB Q05655
- Sequence (Q05655 whole entry, looked up): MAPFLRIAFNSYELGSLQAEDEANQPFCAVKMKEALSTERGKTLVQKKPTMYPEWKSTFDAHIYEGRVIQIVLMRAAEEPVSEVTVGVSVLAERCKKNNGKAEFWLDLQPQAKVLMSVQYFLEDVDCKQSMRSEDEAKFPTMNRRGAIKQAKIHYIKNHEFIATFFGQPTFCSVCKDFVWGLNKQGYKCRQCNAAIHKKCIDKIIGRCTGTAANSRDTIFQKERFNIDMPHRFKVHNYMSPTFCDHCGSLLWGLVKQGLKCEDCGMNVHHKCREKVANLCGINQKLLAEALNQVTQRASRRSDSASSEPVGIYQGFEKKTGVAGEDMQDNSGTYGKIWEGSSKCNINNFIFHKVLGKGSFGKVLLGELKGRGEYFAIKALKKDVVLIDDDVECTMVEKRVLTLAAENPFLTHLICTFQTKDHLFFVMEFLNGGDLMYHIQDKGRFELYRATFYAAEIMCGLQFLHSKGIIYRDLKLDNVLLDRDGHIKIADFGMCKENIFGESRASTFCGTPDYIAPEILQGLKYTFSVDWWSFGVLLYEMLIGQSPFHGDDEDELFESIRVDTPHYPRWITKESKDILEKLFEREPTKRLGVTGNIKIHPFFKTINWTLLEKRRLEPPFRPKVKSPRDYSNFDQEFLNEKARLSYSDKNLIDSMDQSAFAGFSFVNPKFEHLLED
- Protocol details: radiometric filter-binding kinase assay, Kinase HotSpot
- Test conditions: compound 0.5 µM; ATP 10 µM
Hi, to clarify the labels: class 1 covers residual activity from 90% upward, class 0 covers anything below 90%.

Here's what some known entries look like.
Say whether Cc1nc(-c2ccccc2)c(-c2ccncc2)o1 shows residual activity of 90% or more. class 1

Tell me whether residual activity is at least 90% here: COc1ccc2c(c1)c(C1=C(c3c[nH]c4ccccc34)C(=O)NC1=O)cn2CCCN(C)C class 0

hey, is residual activity for this one >= 90%? O=C1c2ccccc2-c2nc3nnnn3nc21 class 1

Please check the record C[C@@H]1CCN(C(=O)CC#N)C[C@@H]1N(C)c1ncnc2[nH]ccc12 and state if its residual activity is at or above 90%. class 0

Decide: is the reported value of residual activity for COc1cc2ncnc(Nc3ccc(Oc4ccccc4)cc3)c2cc1OC equal to or greater than 90%? class 1

Does the compound COc1cc2ncnc(Nc3ccc(OCc4ccccc4)cc3)c2cc1OC have recorded residual activity that is 90% or more? class 1

Say whether CS(=O)(=O)CCNCc1ccc(-c2ccc3ncnc(Nc4ccc(OCc5cccc(F)c5)c(Cl)c4)c3c2)o1 shows residual activity of 90% or more. class 1

Entry COc1ccc(S(=O)(=O)N(CCO)c2ccccc2CN(C)C/C=C/c2ccc(Cl)cc2)cc1 : is its residual activity no less than 90%? class 1

More entries:
Is residual activity for Fc1ccc(-c2nc3n(c2-c2ccncc2)CCS3)cc1 at or above 90%? class 1

// inclusive: residual activity at least 90%? input: NC(=O)c1cccc(-c2cc(Nc3ccc(OC(F)(F)F)cc3)ncn2)c1 class 0

---

- System: TEK (human)
- Protocol details: radiometric filter-binding kinase assay, Kinase HotSpot
- Test conditions: compound 0.5 µM; ATP 10 µM
Endpoint name: residual activity
Param answer (str): number followed by unit.

Below: 4 molecules and their reported residual activity.
Item C[C@@H]1CCN(C(=O)CC#N)C[C@@H]1N(C)c1ncnc2[nH]ccc12 with TEK (human) - residual activity? 96.6%

Form field - read-out: residual activity; system: TEK (human); submitted item: Cc1cncc2cccc(S(=O)(=O)N3CCCN(C(=O)CN)C[C@H]3C)c12 98.6%

I'm curious: which residual activity was measured for COc1ccc(C(=O)Nc2sc3c(c2C(N)=O)CCCC3)cc1OC tested on TEK (human)? 96.4%

Give recorded residual activity with TEK (human) for the following molecule: COc1ccc(S(=O)(=O)N(CCO)c2ccccc2CN(C)C/C=C/c2ccc(Cl)cc2)cc1 105%

Pending molecule:
Write down the reported residual activity of Cc1nc(-c2ccccc2)c(-c2ccncc2)o1 , test system: TEK (human). 101%

---

Each record here notes measured residual activity.
- System: PRKD2 (human) (UniProt Q9BZL6)
- Sequence (Q9BZL6 whole entry, looked up): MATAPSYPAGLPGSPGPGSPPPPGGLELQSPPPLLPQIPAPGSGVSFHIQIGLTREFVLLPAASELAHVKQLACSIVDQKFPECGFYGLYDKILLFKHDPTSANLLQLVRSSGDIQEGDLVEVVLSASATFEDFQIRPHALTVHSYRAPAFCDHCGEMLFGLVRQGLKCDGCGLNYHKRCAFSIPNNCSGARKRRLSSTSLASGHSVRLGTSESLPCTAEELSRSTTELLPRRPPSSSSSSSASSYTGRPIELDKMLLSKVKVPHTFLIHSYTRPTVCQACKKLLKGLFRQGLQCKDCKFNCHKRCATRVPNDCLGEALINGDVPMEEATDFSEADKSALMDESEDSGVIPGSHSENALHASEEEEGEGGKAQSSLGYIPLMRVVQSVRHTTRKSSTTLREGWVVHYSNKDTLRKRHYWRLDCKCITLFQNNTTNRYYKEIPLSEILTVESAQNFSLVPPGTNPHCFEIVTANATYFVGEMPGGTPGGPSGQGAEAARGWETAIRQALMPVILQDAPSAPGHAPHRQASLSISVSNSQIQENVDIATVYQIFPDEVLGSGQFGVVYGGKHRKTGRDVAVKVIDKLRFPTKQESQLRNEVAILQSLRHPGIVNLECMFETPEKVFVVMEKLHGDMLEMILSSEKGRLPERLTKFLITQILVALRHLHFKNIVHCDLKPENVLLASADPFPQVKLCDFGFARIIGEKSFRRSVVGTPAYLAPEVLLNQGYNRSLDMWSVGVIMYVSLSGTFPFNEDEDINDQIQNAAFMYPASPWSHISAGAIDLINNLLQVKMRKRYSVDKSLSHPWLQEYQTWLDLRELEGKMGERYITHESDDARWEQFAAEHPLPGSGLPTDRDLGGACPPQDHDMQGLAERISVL
- Protocol details: radiometric filter-binding kinase assay, Kinase HotSpot
- Test conditions: compound 0.5 µM; ATP 10 µM
Numeric only. Scale: %

Given the entry CN(C)CCCn1cc(C2=C(c3c[nH]c4ccccc34)C(=O)NC2=O)c2ccccc21 , report its measured residual activity. 78.8

Sample CN(C)S(=O)(=O)c1ccc2c(c1)/C(=C/c1cc3c([nH]1)CCCC3)C(=O)N2 — what was its residual activity? 102

Dear colleague, I am looking for the recorded residual activity of the following compound: COc1cc2ncnc(Nc3ccc(Oc4ccccc4)cc3)c2cc1OC 100

So what does the record say about residual activity for CO[C@@H]1[C@H](N(C)C(=O)c2ccccc2)C[C@H]2O[C@]1(C)n1c3ccccc3c3c4c(c5c6ccccc6n2c5c31)C(=O)NC4 ? 62.9

Further cases:
Which residual activity value is on record for O=C1C(Cl)=C(N2C(=O)CCC2=O)C(=O)c2ccccc21 ? 95.7

Look up residual activity: COc1ccc2c(c1)c(C1=C(c3c[nH]c4ccccc34)C(=O)NC1=O)cn2CCCN(C)C 92.3

Need residual activity of Fc1ccc(-c2nc3n(c2-c2ccncc2)CCS3)cc1 , thanks. 94.7

---

residual activity: recorded values
- Test system: PRKCQ (human), Q04759 [P330L]
- Sequence (Q04759 whole entry P330L, looked up): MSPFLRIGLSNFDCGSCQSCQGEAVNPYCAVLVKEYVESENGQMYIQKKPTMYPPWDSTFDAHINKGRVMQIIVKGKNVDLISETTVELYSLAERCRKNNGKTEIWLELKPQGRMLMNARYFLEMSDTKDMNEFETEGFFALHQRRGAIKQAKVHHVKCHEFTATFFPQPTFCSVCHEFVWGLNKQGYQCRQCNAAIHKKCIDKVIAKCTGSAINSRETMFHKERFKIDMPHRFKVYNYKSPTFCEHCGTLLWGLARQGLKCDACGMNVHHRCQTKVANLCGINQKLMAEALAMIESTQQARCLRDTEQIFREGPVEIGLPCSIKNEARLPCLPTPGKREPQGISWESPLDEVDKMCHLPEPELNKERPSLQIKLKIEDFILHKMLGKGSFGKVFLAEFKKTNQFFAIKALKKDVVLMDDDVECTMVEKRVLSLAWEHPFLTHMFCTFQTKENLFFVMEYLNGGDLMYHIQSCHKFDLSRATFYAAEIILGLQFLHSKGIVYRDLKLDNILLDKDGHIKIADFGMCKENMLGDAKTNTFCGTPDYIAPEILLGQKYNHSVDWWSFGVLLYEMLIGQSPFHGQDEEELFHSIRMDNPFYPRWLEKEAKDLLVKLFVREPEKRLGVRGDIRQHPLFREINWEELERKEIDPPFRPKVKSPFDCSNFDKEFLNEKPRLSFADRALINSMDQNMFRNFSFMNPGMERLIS
- Protocol details: radiometric filter-binding kinase assay, Kinase HotSpot
- Test conditions: compound 0.5 µM; ATP 10 µM
Numeric only. Scale: %

Worked cases, residual activity given:
I am curious: what residual activity value has been reported for CCN(CC)CCNC(=O)c1c(C)[nH]c(/C=C2\C(=O)Nc3ccc(Cl)cc32)c1C ? 105

Query (molecule): COc1cc2ncc(-c3ccccc3)nc2cc1OC ; field requested: residual activity 101

# get_value(readout='residual activity', item= COc1cc2c(Nc3ccc(Br)cc3F)ncnc2cc1OCC1CCN(C)CC1 ) 100

Others:
Form field: reported residual activity of Nc1nnc2[nH]c3ccccc3nc1-2 89.7

// residual activity lookup, key: O=C(O)c1ccc2c3c1cccc3c(=O)n1c3ccccc3nc21 117

Name the reported residual activity value associated with the molecule COc1cc2ncnc(Nc3cccc(Cl)c3)c2cc1OC 105

Bench note: what residual activity did CC(C)N(CCC(=O)c1ccc2ccccc2c1)Cc1ccccc1 show? 122

Data request, read-out residual activity, for Nc1n[nH]c2nnc(-c3c(-c4ccccc4)nn4ccccc34)cc12 79.9

Suppose we examine the molecule O=C1NC(=O)c2c1c1c3ccccc3[nH]c1c1[nH]c3cc(Br)ccc3c21 ; what residual activity value has been reported? 93.1

Data request, read-out residual activity, for CC(C)c1nn(-c2c(Cl)cccc2Cl)c2nc(Cc3ccc(OCCO)cc3)nc(O)c12 97.3

State the recorded residual activity for this entry: Fc1ccc(-c2nc3n(c2-c2ccncc2)CCS3)cc1 123

Suppose we examine the molecule CCOC(=O)c1c(C)[nH]c(/C=C2\C(=O)Nc3ccccc32)c1C ; what residual activity value has been reported? 116

---

- System: MET (human)
- Protocol details: radiometric filter-binding kinase assay, Kinase HotSpot
- Test conditions: compound 0.5 µM; ATP 10 µM
Endpoint name: residual activity (%)
Express it in %; write the number only.

These recorded examples may help you get a feel for the data.
Find the recorded residual activity belonging to COc1cc(Nc2c(C#N)cnc3cc(OCCCN4CCN(C)CC4)c(OC)cc23)c(Cl)cc1Cl and report it. 84.5

Which residual activity value is on record for Cc1nc(-c2ccccc2)c(-c2ccncc2)o1 ? 102

Record request: residual activity value, item NC(=O)c1cccc(-c2cc(Nc3ccc(OC(F)(F)F)cc3)ncn2)c1 135

Which measured residual activity value corresponds to O=C(c1cc2cc(O)ccc2[nH]1)c1cc2cc(O)ccc2[nH]1 ? 89.2

Report residual activity for Cc1cccc(-c2nc(C(C)(C)C)[nH]c2-c2ccc3c(c2)OCO3)n1 please. 82.7

Can you share its residual activity? I mean this compound: Cn1c2ccccc2c2c3c(c4c5ccccc5n(CCC#N)c4c21)CNC3=O 100

Quick one: residual activity of N#Cc1c[nH]c2c[nH]/c(=N\Cc3cccnc3)cc2/c1=N\c1ccc(F)c(Cl)c1 ? 94.9

Would you kindly look at the next entry?
Name the reported residual activity value associated with the compound CCCCc1c(-c2ccc(OC)cc2)[nH]c2nccnc12 86.8

---

- System: UniProt Q9HBH9
- Sequence (Q9HBH9 whole entry, looked up): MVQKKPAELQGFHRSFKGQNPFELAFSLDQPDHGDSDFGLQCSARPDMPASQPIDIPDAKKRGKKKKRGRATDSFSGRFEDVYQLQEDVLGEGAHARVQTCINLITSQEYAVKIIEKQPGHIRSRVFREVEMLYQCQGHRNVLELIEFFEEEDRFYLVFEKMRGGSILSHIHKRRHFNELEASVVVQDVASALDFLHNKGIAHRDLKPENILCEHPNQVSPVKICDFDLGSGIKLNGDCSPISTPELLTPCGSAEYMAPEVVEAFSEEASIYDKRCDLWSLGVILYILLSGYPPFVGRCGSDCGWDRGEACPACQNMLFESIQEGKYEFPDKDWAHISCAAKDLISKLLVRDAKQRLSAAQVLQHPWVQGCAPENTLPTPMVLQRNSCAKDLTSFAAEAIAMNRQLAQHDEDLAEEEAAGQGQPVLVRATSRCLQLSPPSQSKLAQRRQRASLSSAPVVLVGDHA
- Protocol details: radiometric filter-binding kinase assay, Kinase HotSpot
- Test conditions: compound 0.5 µM; ATP 10 µM
Endpoint name: residual activity (%)
Express the result in % but write the number alone.

See these solved cases before continuing.
Reported residual activity for Fc1ccc(-c2nc3n(c2-c2ccncc2)CCS3)cc1 : what is it? 84.9

# input compound: O=C1Nc2ccc(Br)cc2/C1=C\c1cc2c([nH]1)CCCC2 ; wanted: its residual activity 87.1

Need residual activity of COc1cc2ncnc(Nc3ccc(Oc4ccccc4)cc3)c2cc1OC , thanks. 47.9

Using the record for c1ccc2c(-c3ccncc3)c[nH]c2c1 , report its residual activity. 39.2

Entry N#C/C(=C\c1ccc(O)c(O)c1)C(=O)NCc1ccccc1 : reported residual activity = ? 87.9

---
Quick check: residual activity of CN(C)CCCn1cc(C2=C(c3c[nH]c4ccccc34)C(=O)NC2=O)c2ccccc21 ? 85.3

Please give the measured residual activity for this compound: O=C1NC(=O)c2c1c1c3ccccc3[nH]c1n1cncc21 35

// query residual activity value for entry CS(=O)(=O)CCNCc1ccc(-c2ccc3ncnc(Nc4ccc(OCc5cccc(F)c5)c(Cl)c4)c3c2)o1 97.3

Field request: residual activity | item: COc1ccc(S(=O)(=O)N(CCO)c2ccccc2CN(C)C/C=C/c2ccc(Cl)cc2)cc1 102

Need residual activity, item CN(C)c1ccc(/C=C2\C(=O)Nc3ccccc32)cc1 90.5

May I ask what residual activity has been recorded for Cc1cccc(-c2nc(C(C)(C)C)[nH]c2-c2ccc3c(c2)OCO3)n1 ? 87.8

Consider the compound shown here: CCCCc1c(-c2ccc(OC)cc2)[nH]c2nccnc12 What is its recorded residual activity? 99.3

I have this compound here, Cc1nc(-c2ccccc2)c(-c2ccncc2)o1 , and I need its recorded residual activity. 90.5

Entry COc1ccc2c(c1)/C(=C/c1cnc[nH]1)C(O)=N2 has what residual activity? 84.9
